All figures here come from patent US7432303B2.

# key: entry, value: inhibition at 6 µg/mL
# Tested on: SVR cells
# Measurement Protocol: SVR cell assay: cell numbers counted at 48 hours, percent inhibition versus control
# Assay type: cell-based, murine
# Measurement Context: Mus musculus; 6 μg/ml; 10,000 SVR cells in 24 well dish; counted at 48 hours; read-out: Percent Inhibition at a Specified Density (μg/ml): 6
Give just the numeric value; % need not be written.

Would you please look over these solved cases?
In plain terms, O=C(/C=C/c1ccc(OCc2ccccc2)cc1)c1ccc(Cl)cc1 [Compound 25, 4-Benzyloxy-4′-chlorochalcone] has a documented inhibition at 6 µg/mL of 62.9

In plain terms, O=C(/C=C/c1c(F)c(F)c(F)c(F)c1F)c1ccccc1 [Compound 35, 2,3,4,5,6-Pentafluorochalcone] has a documented inhibition at 6 µg/mL of 0

In plain terms, Cc1ccc(/C=C/C(=O)c2ccc(Cl)cc2)cc1 [Compound 29, 4′-Chloro-4-methylchalcone] has a documented inhibition at 6 µg/mL of 58.5

Pending compound:
In plain terms, O=C(/C=C/c1c(Cl)cccc1Cl)c1c(Cl)cccc1Cl [Compound 32, 2,2′,6,6′-Tetrachlorochalcone] has a documented inhibition at 6 µg/mL of 97
